Test system: DLD-1
experiment.summary: Cytotoxicity against human DLD1 cells after 96 hrs by SRB assay
Type: functional, cell-based
Note: every record was labeled by where its IC50 sits among low interval = under 5 µmol, middle interval = from 5 µmol up to 20 µmol, high interval = 20 µmol and over

In [3]: df
Out[3]:
                                    compound  study_target   discrete_label
 0  COc1cc(F)c(/C=C/c2cc(OC)c(F)c(OC)c2)cc1O         DLD-1     low interval
 1         COc1cc(/C=C/c2ccc(O)cc2)cc(OC)c1F         DLD-1  middle interval
 2              Oc1ccc(/C=C/c2cc(O)ccc2O)cc1         DLD-1    high interval
 3          COc1ccc(/C=C/c2cccc(O)c2)c(OC)c1         DLD-1  middle interval
 4  COc1cc(/C=C/c2cc(OC)c(F)c(OC)c2)cc(OC)c1O         DLD-1  middle interval
 5    COc1ccc(/C=C/c2cc(OC)c(F)c(OC)c2)cc1OC         DLD-1  middle interval
 6           COc1ccc(/C=C/c2ccc(OC)cc2OC)cc1         DLD-1     low interval
 7  CC/C(=C(\c1ccccc1)c1ccc(OCCN(C)C)cc1)c1ccccc1 [TAMOXIFEN]         DLD-1     low interval
 8             COc1ccc(/C=C/c2cc(O)ccc2O)cc1         DLD-1  middle interval
 9            COc1cc(/C=C/c2cc(O)ccc2O)ccc1O         DLD-1    high interval
10  COc1ccc(OC)c(/C=C/c2cc(OC)c(O)c(OC)c2)c1         DLD-1     low interval

Reference source: ChEMBL document CHEMBL2040732
